Item-by-item account of %Inh
# System: AURKA;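 further: KINOMEscan kinase panel screen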
# assay.context: concentration: 1 μM, replicates: in singlicate; n = 1

>  <smiles.notation>
NS(=O)(=O)CCc1cccc(Nc2nccc(-c3c(-c4cccc(NC(=O)c5c(F)cccc5F)c4)nn4ccccc34)n2)c1

>  <%Inh, %>
93.5

$$$$
>  <smiles.notation>
CN(C(=O)c1ccc(-c2cc(-c3c[nH]nc3-c3ccccn3)ccn2)cc1)C1CCOCC1

>  <%Inh, %>
0

$$$$
>  <smiles.notation>
O=C(NCCNc1ccnc(Nc2ccc(F)cc2)n1)c1cc2ccccc2s1

>  <%Inh, %>
11

$$$$
>  <smiles.notation>
CC(C)Oc1ccc2c(-c3ccnc(Nc4ccc(N5CCN(C)CC5)cc4)n3)cnn2n1

>  <%Inh, %>
98.6

$$$$
